- EXPERIMENTAL TARGET: OR5K1 (Homo sapiens)
- REPORTED CONDITIONS: stereoisomer not certain
The reply should be one of these categories: active, inactive

Below, 2 compounds whose answers are already recorded.
COC(=O)C(C)C	inactive
CC(C)=CC1CC(C)CCO1 (stereo not drawn)	inactive

*Q* Just curious, what result did `CCc1cnc(C)c(C)n1` get here?
*A* inactive

*Q* Just curious, what result did CCC(S)C(C)CO (stereo not drawn) get here?
*A* inactive

*Q* Just curious, what result did CCC(C)c1nccnc1OC (stereo not drawn) get here?
*A* active

* * *

- EXPERIMENTAL TARGET: UniProt Q8VGQ3
- Sequence (Q8VGQ3 as listed by the source): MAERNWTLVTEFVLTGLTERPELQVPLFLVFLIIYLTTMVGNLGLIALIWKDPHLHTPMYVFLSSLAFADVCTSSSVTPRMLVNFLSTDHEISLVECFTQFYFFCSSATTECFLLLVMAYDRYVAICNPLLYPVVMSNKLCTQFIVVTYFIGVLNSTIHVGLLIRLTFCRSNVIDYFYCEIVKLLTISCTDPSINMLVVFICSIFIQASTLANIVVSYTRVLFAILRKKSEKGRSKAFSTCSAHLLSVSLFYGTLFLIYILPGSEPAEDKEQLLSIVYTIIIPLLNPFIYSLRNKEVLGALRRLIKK
- REPORTED CONDITIONS: stereoisomer not certain
READOUT TYPE: odorant receptor agonist call

CCCCCOC(=O)CCCCC	inactive
CCCCCCCCCO	inactive
CCCCCCCO	inactive

* * *

- EXPERIMENTAL TARGET: OR1G1 (Homo sapiens) (UniProt P47890)
- Sequence (P47890 whole entry): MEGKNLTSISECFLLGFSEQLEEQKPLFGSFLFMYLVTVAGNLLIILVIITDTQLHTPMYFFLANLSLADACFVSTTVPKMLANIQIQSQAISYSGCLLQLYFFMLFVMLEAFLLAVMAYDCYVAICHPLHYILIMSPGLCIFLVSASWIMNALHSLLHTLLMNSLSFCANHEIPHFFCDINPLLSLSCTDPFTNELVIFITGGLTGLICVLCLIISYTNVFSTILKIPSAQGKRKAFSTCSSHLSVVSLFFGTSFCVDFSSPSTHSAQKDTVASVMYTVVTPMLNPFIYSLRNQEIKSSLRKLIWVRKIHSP
- REPORTED CONDITIONS: stereoisomer not certain
The reply should be one of these categories: label 1 = active, label 0 = inactive

Below, 4 molecules whose answers are already recorded.
CCCCCCCCCC(=O)OCC	label 1
CCCC(=O)SC	label 1
COc1nccnc1CC(C)C	label 0
CCCCCC(=O)C(C)C(C)=O (stereo not given)	label 0

*Q* Just curious, what result did `Cc1cnccn1` get here?
*A* label 1

*Q* Just curious, what result did CCC1OC(C)=C(O)C1=O (stereo not given) get here?
*A* label 0

*Q* Just curious, what result did CCCCCC(O)CC (stereo not given) get here?
*A* label 1

*Q* Just curious, what result did `CSC` get here?
*A* label 0

*Q* Just curious, what result did CC1=CCC2CC1C2(C)C (stereo not given) get here?
*A* label 0

* * *

- EXPERIMENTAL TARGET: UniProt Q8VH20
- Sequence (Q8VH20 as listed by the source): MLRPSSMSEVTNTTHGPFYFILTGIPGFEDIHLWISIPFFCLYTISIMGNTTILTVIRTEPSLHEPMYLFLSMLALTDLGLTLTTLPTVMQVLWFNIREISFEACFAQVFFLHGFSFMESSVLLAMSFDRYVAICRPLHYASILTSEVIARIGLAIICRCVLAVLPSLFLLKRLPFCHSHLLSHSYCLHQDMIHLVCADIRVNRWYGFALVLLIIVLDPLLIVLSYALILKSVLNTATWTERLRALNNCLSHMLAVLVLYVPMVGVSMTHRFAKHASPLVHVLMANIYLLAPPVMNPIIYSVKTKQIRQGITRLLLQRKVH
- REPORTED CONDITIONS: stereoisomer not certain
READOUT TYPE: odorant receptor agonist call

// known answers, use as guide
CC(=O)Oc1ccccc1	inactive
CCCCCC(=Cc1ccccc1)C(OC)OC	inactive
CCCC=O	inactive
C1CCOCC1	inactive

List reported odorant receptor agonist call for each of these compounds:
1. CCc1nccnc1CC
2. c1ccc2ncccc2c1

*A*
inactive
inactive

*Q* Look at this compound and give its reported odorant receptor agonist call. `CCCCCO`
*A* inactive

* * *

- EXPERIMENTAL TARGET: OR2W1 (Homo sapiens) (UniProt Q9Y3N9)
- Sequence (Q9Y3N9 whole entry): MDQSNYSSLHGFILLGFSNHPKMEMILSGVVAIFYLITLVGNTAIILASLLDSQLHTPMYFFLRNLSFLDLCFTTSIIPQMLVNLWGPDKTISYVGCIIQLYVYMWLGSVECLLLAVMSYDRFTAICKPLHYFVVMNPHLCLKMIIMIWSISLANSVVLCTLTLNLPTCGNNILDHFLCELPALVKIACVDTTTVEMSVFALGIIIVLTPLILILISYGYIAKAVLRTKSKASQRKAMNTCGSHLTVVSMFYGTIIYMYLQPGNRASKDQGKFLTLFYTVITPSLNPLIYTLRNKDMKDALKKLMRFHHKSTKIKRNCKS
- REPORTED CONDITIONS: stereoisomer not certain
The reply should be one of these categories: true = active, false = inactive

Below, 5 compounds whose answers are already recorded.
CCCC(C)=O	false
CCOC(=O)c1ccccc1	true
CCO	false
CCC(S)C(C)CO (stereo not drawn)	false
CC(=O)OCc1ccccc1	true

*Q* Just curious, what result did `CCOC(=O)C1CCCCC1` get here?
*A* true

*Q* Just curious, what result did `CCC(=O)C(=O)CC` get here?
*A* true

*Q* Just curious, what result did CC(C)=CC1CC(C)CCO1 (stereo not drawn) get here?
*A* false

* * *

- EXPERIMENTAL TARGET: OR1A1 (Homo sapiens)
- REPORTED CONDITIONS: stereoisomer not certain
The reply should be one of these categories: True = active, False = inactive

CCCCCC=CC=O	False
CCCCCCCC(C)=O	True
CCOC(=O)Cc1cccc(Br)c1	True
CCCCCC(S)C(C)CO (stereo not given)	False

Query compound follows.
*Q* Just curious, what result did `CCc1cnccn1` get here?
*A* False

* * *

- EXPERIMENTAL TARGET: OR5K1 (Homo sapiens)
- REPORTED CONDITIONS: stereoisomer not certain
The reply should be one of these categories: active, inactive

Below, 2 molecules whose answers are already recorded.
CC(=O)c1cnccn1	active
CCC(=O)C1=NCCC1	inactive

Query molecule follows.
*Q* Just curious, what result did `C=CC(=C)CCC=C(C)C` get here?
*A* inactive

* * *

- EXPERIMENTAL TARGET: OR1G1 (Homo sapiens) (UniProt P47890)
- REPORTED CONDITIONS: stereoisomer not certain
READOUT TYPE: odorant receptor agonist call

// known answers, use as guide
CC(C)=CCCC(C)CC=O (stereo unspecified)	active
CCCCCCCCC(C)=O	inactive
C=CC(C)(O)CCC=C(C)CCC=C(C)C (stereo unspecified)	inactive
CC12CCC(CC1=O)C2(C)C (stereo unspecified)	active
CCCCCCCC(=O)OCC	active
CC=Cc1ccc(OC)cc1	active

List reported odorant receptor agonist call for each of these compounds:
1. CCCCCCCCC(=O)OC
2. CC(CO)CS (stereo unspecified)
3. CC1=C(O)C(=O)OC1C (stereo unspecified)
4. CCCCCCCCCCC(C)=O
5. CCCCCC1C(=O)CCC1CC(=O)OC (stereo unspecified)

*A*
["active", "inactive", "inactive", "inactive", "active"]

* * *

- EXPERIMENTAL TARGET: OR2W1 (Homo sapiens)
- REPORTED CONDITIONS: stereoisomer not certain
The reply should be one of these categories: active, inactive

CCCC1CCCC(=O)O1 (stereo not given)	active
COc1cc(C(=O)O)ccc1O	inactive
CC(C)CCO	inactive
CCC(=O)C1=NCCC1	inactive
c1ccccc1	inactive

*Q* Just curious, what result did `CCCCCC(=O)CC` get here?
*A* active

*Q* Just curious, what result did `C=CC(=O)CC` get here?
*A* inactive

*Q* Just curious, what result did CCC(S)C(C)=O (stereo not given) get here?
*A* inactive

*Q* Just curious, what result did `CCCCC=CC=CC=O` get here?
*A* active

*Q* Just curious, what result did `CSCCCO` get here?
*A* inactive

*Q* Just curious, what result did CCC(C)C(=O)OC (stereo not given) get here?
*A* inactive

*Q* Just curious, what result did `CCc1ccc(O)c(OC)c1` get here?
*A* inactive

*Q* Just curious, what result did `CCCCCCCO` get here?
*A* active

*Q* Just curious, what result did CCCCCCC1CCC(=O)O1 (stereo not given) get here?
*A* active

*Q* Just curious, what result did `CC(=O)OCCC(C)C` get here?
*A* active

*Q* Just curious, what result did CC1=CCC(C(C)(C)S)CC1 (stereo not given) get here?
*A* active

*Q* Just curious, what result did `CC(=O)c1c(C)c([N+](=O)[O-])c(C(C)(C)C)c([N+](=O)[O-])c1C` get here?
*A* inactive

*Q* Just curious, what result did `CCCCCCCC(=O)OCC` get here?
*A* active

*Q* Just curious, what result did `C=CCSC` get here?
*A* inactive

* * *

- EXPERIMENTAL TARGET: OR2W1 (Homo sapiens) (UniProt Q9Y3N9)
- REPORTED CONDITIONS: stereoisomer not certain
READOUT TYPE: odorant receptor agonist call

// known answers, use as guide
CCC1OC(=O)C(O)=C1C (stereo unspecified)	inactive
C=C1CCC2CC1C2(C)C (stereo unspecified)	inactive
CCC=CCCOC(C)=O	active
CCCCC=CC=O	active
CSCc1ccco1	active

List reported odorant receptor agonist call for each of these compounds:
1. CCc1cccc(O)c1
2. O=C1CCOc2ccccc21
3. CCOc1ccc2ccccc2c1

*A*
1. active
2. active
3. active

* * *

- EXPERIMENTAL TARGET: OR2W1 (Homo sapiens) (UniProt Q9Y3N9)
- REPORTED CONDITIONS: stereoisomer not certain
The reply should be one of these categories: t for active, f for inactive

CCCC=CC=O	f

*Q* Just curious, what result did `CCCCC(=O)O` get here?
*A* f

*Q* Just curious, what result did `CCCCCCO` get here?
*A* t

*Q* Just curious, what result did `CCCCCCOC(C)=O` get here?
*A* t

*Q* Just curious, what result did `CC(C)=CCCC(C)=CCO` get here?
*A* f

*Q* Just curious, what result did `O=c1ccc2ccccc2o1` get here?
*A* t

*Q* Just curious, what result did `CC(=O)Oc1ccccc1` get here?
*A* f

*Q* Just curious, what result did CCCCCCCC1CCC(=O)O1 (stereo not drawn) get here?
*A* t
